Please provide measured Avg. POC for the entries that follow.
Biological target: CK1gamma2 (Homo sapiens (Human), UniProt P78368)
Sequence (P78368 whole entry): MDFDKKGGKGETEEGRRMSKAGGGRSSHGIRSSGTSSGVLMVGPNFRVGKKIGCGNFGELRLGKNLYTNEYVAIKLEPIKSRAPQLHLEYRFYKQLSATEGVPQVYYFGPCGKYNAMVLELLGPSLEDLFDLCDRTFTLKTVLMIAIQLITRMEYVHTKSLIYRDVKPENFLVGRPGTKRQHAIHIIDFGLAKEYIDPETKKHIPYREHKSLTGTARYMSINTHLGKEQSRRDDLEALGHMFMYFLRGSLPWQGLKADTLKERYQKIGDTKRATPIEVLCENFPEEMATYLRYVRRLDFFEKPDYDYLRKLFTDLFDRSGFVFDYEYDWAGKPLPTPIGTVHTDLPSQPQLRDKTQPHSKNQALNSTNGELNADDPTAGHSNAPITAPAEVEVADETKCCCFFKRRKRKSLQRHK
Experiment: KinaseProfiler off-target kinase profiling
Format: biochemical
Details: 10 μM, ATP near Km
Method: Representative compounds (Examples 12, 32, 26 and 2) of the invention were tested for off-target kinase activity at a concentration of 10 μM by Millipore, Inc. in their KinaseProfiler™ service against all the kinases available in their full kinase panel. Compounds were run in duplicate at a concentration of ATP near the Km for each individual kinase according to Millipore's specifications. […]
Expressed in POC, but write only the number.

# Avg. POC of Cc1c(-c2cnn(C)c2)nn(-c2ccccc2)c1NC(=O)NC1CCOc2cc(F)ccc21 (stereo not shown) = 114.5

# Avg. POC of Cc1c(-c2ccc(=O)n(C)c2)nn(-c2ccccc2)c1NC(=O)NC1CN(CC(F)(F)F)Cc2ccccc21 (stereo not shown) = 112.5

# Avg. POC of `Cc1c(-c2cnn(C)c2)nn(-c2ccccc2)c1NC(=O)N[C@H]1CCCc2ccccc21` = 142.5

# Avg. POC of COCc1ccc2c(c1)C(NC(=O)Nc1c(C)c(-c3cnn(C)c3)nn1-c1ccccc1)COC2 (stereo not shown) = 101.5

---

target: IRR (Homo sapiens (Human), UniProt P14616); assay: KinaseProfiler off-target kinase profiling; format: biochemical; details: 10 μM, ATP near Km
propertyMeasured: Avg. POC (POC)
Expressed in POC, but write only the number.

Form field Avg. POC for item Cc1c(-c2cnn(C)c2)nn(-c2ccccc2)c1NC(=O)NC1CCOc2cc(F)ccc21 (stereo not shown) on IRR (Homo sapiens (Human), UniProt P14616): 91

Form field Avg. POC for item `Cc1c(-c2cnn(C)c2)nn(-c2ccccc2)c1NC(=O)N[C@H]1CCCc2ccccc21` on IRR (Homo sapiens (Human), UniProt P14616): 2.5

Form field Avg. POC for item Cc1c(-c2ccc(=O)n(C)c2)nn(-c2ccccc2)c1NC(=O)NC1CN(CC(F)(F)F)Cc2ccccc21 (stereo not shown) on IRR (Homo sapiens (Human), UniProt P14616): 89

Form field Avg. POC for item COCc1ccc2c(c1)C(NC(=O)Nc1c(C)c(-c3cnn(C)c3)nn1-c1ccccc1)COC2 (stereo not shown) on IRR (Homo sapiens (Human), UniProt P14616): 109.5

---

biological target: FGFR1 (Homo sapiens (Human), UniProt P11362); test: KinaseProfiler off-target kinase profiling; assay type: biochemical; settings: 10 μM, ATP near Km
Sequence (P11362 22-822): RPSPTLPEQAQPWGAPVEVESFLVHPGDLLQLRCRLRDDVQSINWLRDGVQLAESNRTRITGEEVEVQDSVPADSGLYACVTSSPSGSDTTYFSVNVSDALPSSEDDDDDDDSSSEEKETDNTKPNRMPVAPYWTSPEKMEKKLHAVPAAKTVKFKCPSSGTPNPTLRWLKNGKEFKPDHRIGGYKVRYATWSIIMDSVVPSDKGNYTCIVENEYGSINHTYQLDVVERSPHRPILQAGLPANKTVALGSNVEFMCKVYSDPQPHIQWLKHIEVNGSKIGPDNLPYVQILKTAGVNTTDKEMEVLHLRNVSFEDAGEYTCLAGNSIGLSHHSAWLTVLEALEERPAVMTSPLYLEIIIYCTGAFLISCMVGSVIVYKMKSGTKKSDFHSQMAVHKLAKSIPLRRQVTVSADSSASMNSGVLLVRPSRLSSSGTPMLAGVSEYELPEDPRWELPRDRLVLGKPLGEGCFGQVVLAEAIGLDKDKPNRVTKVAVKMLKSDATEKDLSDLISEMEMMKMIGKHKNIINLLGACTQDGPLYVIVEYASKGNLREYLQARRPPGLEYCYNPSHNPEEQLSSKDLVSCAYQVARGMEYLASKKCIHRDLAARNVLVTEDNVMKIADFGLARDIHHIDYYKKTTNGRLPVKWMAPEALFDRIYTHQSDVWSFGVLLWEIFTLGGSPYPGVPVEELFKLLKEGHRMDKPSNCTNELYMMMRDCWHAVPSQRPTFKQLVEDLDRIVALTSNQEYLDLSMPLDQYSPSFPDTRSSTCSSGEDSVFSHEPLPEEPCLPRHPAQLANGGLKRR
propertyMeasured: Avg. POC (POC)
Expressed in POC, but write only the number.

# Avg. POC of Cc1c(-c2cnn(C)c2)nn(-c2ccccc2)c1NC(=O)NC1CCOc2cc(F)ccc21 (stereo not shown) = 90

# Avg. POC of `Cc1c(-c2cnn(C)c2)nn(-c2ccccc2)c1NC(=O)N[C@H]1CCCc2ccccc21` = 114

# Avg. POC of COCc1ccc2c(c1)C(NC(=O)Nc1c(C)c(-c3cnn(C)c3)nn1-c1ccccc1)COC2 (stereo not shown) = 104.5

# Avg. POC of Cc1c(-c2ccc(=O)n(C)c2)nn(-c2ccccc2)c1NC(=O)NC1CN(CC(F)(F)F)Cc2ccccc21 (stereo not shown) = 104.5

---

target: FGFR4 (Homo sapiens (Human)); assay: KinaseProfiler off-target kinase profiling; assay type: biochemical; conditions: 10 μM, ATP near Km
propertyMeasured: Avg. POC
# number then unit; no other words

# Avg. POC of `Cc1c(-c2cnn(C)c2)nn(-c2ccccc2)c1NC(=O)N[C@H]1CCCc2ccccc21` = 124 POC

# Avg. POC of Cc1c(-c2cnn(C)c2)nn(-c2ccccc2)c1NC(=O)NC1CCOc2cc(F)ccc21 (stereo not shown) = 119 POC

# Avg. POC of COCc1ccc2c(c1)C(NC(=O)Nc1c(C)c(-c3cnn(C)c3)nn1-c1ccccc1)COC2 (stereo not shown) = 139.5 POC

# Avg. POC of Cc1c(-c2ccc(=O)n(C)c2)nn(-c2ccccc2)c1NC(=O)NC1CN(CC(F)(F)F)Cc2ccccc21 (stereo not shown) = 123 POC

---

molecular target: MAPKAP-K3 (Homo sapiens (Human)); assay: KinaseProfiler off-target kinase profiling; format: biochemical; settings: 10 μM, ATP near Km
Sequence (Q16644 whole entry): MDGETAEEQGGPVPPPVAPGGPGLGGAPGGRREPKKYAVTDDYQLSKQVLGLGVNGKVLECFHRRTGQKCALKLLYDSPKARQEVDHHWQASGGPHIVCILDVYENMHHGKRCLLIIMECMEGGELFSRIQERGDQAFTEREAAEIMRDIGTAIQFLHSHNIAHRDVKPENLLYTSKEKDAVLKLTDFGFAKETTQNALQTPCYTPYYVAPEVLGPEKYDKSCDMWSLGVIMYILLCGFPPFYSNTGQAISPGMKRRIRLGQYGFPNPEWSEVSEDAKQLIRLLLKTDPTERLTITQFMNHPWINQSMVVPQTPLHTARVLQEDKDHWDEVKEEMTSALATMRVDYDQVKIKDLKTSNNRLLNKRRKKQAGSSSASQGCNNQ
Please provide measured Avg. POC for the entries that follow.
# number then unit; no other words

# Avg. POC of Cc1c(-c2ccc(=O)n(C)c2)nn(-c2ccccc2)c1NC(=O)NC1CN(CC(F)(F)F)Cc2ccccc21 (stereo not shown) [Example 26] = 108.5 POC

# Avg. POC of Cc1c(-c2cnn(C)c2)nn(-c2ccccc2)c1NC(=O)N[C@H]1CCCc2ccccc21 [Example 2] = 128 POC

# Avg. POC of Cc1c(-c2cnn(C)c2)nn(-c2ccccc2)c1NC(=O)NC1CCOc2cc(F)ccc21 (stereo not shown) [Example 12] = 112 POC

# Avg. POC of COCc1ccc2c(c1)C(NC(=O)Nc1c(C)c(-c3cnn(C)c3)nn1-c1ccccc1)COC2 (stereo not shown) [Example 32] = 105 POC

---

Please provide measured Avg. POC for the entries that follow.
molecular target: MAP4K2 (Homo sapiens (Human), UniProt Q12851); assay: KinaseProfiler off-target kinase profiling; type: biochemical; conditions: 10 μM, ATP near Km
Sequence (Q12851 whole entry): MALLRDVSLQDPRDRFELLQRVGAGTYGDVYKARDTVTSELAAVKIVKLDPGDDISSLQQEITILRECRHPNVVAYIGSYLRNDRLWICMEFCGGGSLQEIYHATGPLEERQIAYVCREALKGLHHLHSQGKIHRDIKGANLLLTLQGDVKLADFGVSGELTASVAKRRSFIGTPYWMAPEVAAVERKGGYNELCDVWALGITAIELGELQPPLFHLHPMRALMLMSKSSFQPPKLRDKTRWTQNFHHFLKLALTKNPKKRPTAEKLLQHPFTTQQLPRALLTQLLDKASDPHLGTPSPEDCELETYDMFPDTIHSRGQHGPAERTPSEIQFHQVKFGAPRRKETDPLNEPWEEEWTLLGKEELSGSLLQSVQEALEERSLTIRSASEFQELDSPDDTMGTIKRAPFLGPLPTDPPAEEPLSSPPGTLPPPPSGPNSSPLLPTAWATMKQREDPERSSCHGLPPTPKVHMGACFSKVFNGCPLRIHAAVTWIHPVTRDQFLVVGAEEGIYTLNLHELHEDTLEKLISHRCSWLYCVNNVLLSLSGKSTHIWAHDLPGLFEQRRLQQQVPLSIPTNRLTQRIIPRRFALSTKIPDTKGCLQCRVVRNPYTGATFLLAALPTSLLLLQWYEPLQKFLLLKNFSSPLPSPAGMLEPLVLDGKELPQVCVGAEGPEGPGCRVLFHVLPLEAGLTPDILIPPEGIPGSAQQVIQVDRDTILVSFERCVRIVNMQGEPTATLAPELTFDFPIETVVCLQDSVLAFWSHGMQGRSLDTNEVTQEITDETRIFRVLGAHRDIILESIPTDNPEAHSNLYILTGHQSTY
Expressed in POC, but write only the number.

# Avg. POC of Cc1c(-c2cnn(C)c2)nn(-c2ccccc2)c1NC(=O)N[C@H]1CCCc2ccccc21 [Example 2] = 110

# Avg. POC of Cc1c(-c2ccc(=O)n(C)c2)nn(-c2ccccc2)c1NC(=O)NC1CN(CC(F)(F)F)Cc2ccccc21 (stereo not shown) [Example 26] = 121

# Avg. POC of COCc1ccc2c(c1)C(NC(=O)Nc1c(C)c(-c3cnn(C)c3)nn1-c1ccccc1)COC2 (stereo not shown) [Example 32] = 119.5

# Avg. POC of Cc1c(-c2cnn(C)c2)nn(-c2ccccc2)c1NC(=O)NC1CCOc2cc(F)ccc21 (stereo not shown) [Example 12] = 107.5

---

molecular target: ITK (Homo sapiens (Human), UniProt Q08881); assay: KinaseProfiler off-target kinase profiling; type: biochemical; details: 10 μM, ATP near Km
Sequence (Q08881 whole entry): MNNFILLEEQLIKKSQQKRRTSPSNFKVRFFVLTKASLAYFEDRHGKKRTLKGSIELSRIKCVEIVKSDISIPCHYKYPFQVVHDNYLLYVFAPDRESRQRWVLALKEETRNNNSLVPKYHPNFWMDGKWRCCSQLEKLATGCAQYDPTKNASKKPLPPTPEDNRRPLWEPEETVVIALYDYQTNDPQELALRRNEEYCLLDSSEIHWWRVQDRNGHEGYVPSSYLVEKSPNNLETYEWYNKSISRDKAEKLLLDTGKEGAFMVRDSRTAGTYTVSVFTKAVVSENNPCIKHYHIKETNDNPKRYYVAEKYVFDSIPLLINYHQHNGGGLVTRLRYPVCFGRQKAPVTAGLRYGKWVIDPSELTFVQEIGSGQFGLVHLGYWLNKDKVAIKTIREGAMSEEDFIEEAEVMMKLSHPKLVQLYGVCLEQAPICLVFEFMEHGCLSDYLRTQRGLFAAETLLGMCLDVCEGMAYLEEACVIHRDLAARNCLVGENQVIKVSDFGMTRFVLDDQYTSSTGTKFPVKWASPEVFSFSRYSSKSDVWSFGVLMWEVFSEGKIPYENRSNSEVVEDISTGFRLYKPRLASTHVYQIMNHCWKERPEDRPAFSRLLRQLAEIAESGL
Please provide measured Avg. POC for the entries that follow.
Expressed in POC, but write only the number.

# Avg. POC of COCc1ccc2c(c1)C(NC(=O)Nc1c(C)c(-c3cnn(C)c3)nn1-c1ccccc1)COC2 (stereo not shown) = 124

# Avg. POC of Cc1c(-c2cnn(C)c2)nn(-c2ccccc2)c1NC(=O)NC1CCOc2cc(F)ccc21 (stereo not shown) = 114.5

# Avg. POC of Cc1c(-c2ccc(=O)n(C)c2)nn(-c2ccccc2)c1NC(=O)NC1CN(CC(F)(F)F)Cc2ccccc21 (stereo not shown) = 122

# Avg. POC of `Cc1c(-c2cnn(C)c2)nn(-c2ccccc2)c1NC(=O)N[C@H]1CCCc2ccccc21` = 117.5

---

Please provide measured Avg. POC for the entries that follow.
molecular target: DDR2 (Homo sapiens (Human)); test: KinaseProfiler off-target kinase profiling; assay type: biochemical; settings: 10 μM, ATP near Km
Sequence (Q16832 22-855): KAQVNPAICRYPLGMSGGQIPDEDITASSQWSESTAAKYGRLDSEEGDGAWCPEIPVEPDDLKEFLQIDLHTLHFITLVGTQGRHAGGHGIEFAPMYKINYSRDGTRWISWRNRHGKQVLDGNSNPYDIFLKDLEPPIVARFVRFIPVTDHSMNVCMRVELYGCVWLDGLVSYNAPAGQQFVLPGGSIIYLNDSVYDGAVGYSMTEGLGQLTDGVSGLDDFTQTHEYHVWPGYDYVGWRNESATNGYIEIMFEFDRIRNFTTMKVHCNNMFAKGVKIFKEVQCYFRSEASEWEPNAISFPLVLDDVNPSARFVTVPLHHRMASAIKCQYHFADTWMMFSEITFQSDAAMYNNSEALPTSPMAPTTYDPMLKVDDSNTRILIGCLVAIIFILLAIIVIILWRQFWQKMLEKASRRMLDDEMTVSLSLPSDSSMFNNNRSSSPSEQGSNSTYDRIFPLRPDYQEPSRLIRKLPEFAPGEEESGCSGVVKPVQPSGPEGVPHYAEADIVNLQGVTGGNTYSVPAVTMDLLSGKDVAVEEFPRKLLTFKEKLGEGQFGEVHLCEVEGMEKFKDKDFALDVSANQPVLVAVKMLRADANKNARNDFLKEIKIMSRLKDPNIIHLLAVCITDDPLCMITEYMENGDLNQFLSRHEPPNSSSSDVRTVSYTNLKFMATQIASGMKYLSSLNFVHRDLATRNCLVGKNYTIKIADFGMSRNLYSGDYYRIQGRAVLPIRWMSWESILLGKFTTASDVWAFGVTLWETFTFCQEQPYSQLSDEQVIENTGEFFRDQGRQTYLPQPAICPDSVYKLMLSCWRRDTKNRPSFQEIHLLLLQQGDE
Expressed in POC, but write only the number.

Form field Avg. POC for item Cc1c(-c2ccc(=O)n(C)c2)nn(-c2ccccc2)c1NC(=O)NC1CN(CC(F)(F)F)Cc2ccccc21 (stereo not shown) [Example 26] on DDR2 (Homo sapiens (Human)): 111

Form field Avg. POC for item Cc1c(-c2cnn(C)c2)nn(-c2ccccc2)c1NC(=O)N[C@H]1CCCc2ccccc21 [Example 2] on DDR2 (Homo sapiens (Human)): 113

Form field Avg. POC for item COCc1ccc2c(c1)C(NC(=O)Nc1c(C)c(-c3cnn(C)c3)nn1-c1ccccc1)COC2 (stereo not shown) [Example 32] on DDR2 (Homo sapiens (Human)): 116

Form field Avg. POC for item Cc1c(-c2cnn(C)c2)nn(-c2ccccc2)c1NC(=O)NC1CCOc2cc(F)ccc21 (stereo not shown) [Example 12] on DDR2 (Homo sapiens (Human)): 107

---

biological target: PAK2 (Homo sapiens (Human)); experiment: KinaseProfiler off-target kinase profiling; assay type: biochemical; settings: 10 μM, ATP near Km
Sequence (Q13177 whole entry): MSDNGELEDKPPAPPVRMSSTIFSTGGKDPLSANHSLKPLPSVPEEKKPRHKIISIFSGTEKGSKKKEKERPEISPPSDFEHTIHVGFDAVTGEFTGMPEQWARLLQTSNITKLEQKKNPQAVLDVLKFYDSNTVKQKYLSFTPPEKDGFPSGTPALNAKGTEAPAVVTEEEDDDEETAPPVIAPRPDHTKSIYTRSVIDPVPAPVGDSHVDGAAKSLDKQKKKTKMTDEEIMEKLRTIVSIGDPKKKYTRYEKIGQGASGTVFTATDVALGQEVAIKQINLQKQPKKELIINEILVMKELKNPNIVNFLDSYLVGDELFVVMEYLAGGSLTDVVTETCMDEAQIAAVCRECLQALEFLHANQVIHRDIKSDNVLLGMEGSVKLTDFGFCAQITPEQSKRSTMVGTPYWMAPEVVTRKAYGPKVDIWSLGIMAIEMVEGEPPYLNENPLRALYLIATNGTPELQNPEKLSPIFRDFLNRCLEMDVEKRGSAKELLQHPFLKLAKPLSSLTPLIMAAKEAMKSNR
propertyMeasured: Avg. POC (POC)
Expressed in POC, but write only the number.

# Avg. POC of COCc1ccc2c(c1)C(NC(=O)Nc1c(C)c(-c3cnn(C)c3)nn1-c1ccccc1)COC2 (stereo not shown) = 108.5

# Avg. POC of Cc1c(-c2cnn(C)c2)nn(-c2ccccc2)c1NC(=O)NC1CCOc2cc(F)ccc21 (stereo not shown) = 97

# Avg. POC of Cc1c(-c2ccc(=O)n(C)c2)nn(-c2ccccc2)c1NC(=O)NC1CN(CC(F)(F)F)Cc2ccccc21 (stereo not shown) = 99.5

# Avg. POC of `Cc1c(-c2cnn(C)c2)nn(-c2ccccc2)c1NC(=O)N[C@H]1CCCc2ccccc21` = 104
